target: PD-1 (UniProt Q15116 25-167, limits assumed); assay: ELISA; Cys mutant, no arm
Sequence (Q15116 25-167 limits assumed): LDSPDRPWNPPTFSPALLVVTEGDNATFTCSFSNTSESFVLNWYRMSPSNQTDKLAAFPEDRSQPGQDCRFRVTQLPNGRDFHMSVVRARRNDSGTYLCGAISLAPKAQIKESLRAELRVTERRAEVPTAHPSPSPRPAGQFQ
outcome-measure: binding activity, % of wild type

binder	binding activity, % of wild type
anti-PD-1 antibody 2 HC Thr78Cys (antibody, human IgG4 S228P, kappa, V domains shown, arm on Cys78 as named in each row) VH: QVQLVESGGGVVQPGRSLRLDCKASGITFSNSGMHWVRQAPGKGLEWVAVIWYDGSKRYYADSVKGRFTISRDNSKNCLFLQMNSLRAEDTAVYYCATNDDYWGQGTLVTVSS VL: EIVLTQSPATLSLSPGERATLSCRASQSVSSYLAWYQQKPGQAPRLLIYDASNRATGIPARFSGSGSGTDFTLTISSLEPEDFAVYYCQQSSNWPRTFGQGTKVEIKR	92.2%

For this binder ( anti-PD-1 antibody 2 HC Thr98Cys (antibody, human IgG4 S228P, kappa, V domains shown, arm on Cys98 as named in each row) VH: QVQLVESGGGVVQPGRSLRLDCKASGITFSNSGMHWVRQAPGKGLEWVAVIWYDGSKRYYADSVKGRFTISRDNSKNTLFLQMNSLRAEDTAVYYCACNDDYWGQGTLVTVSS VL: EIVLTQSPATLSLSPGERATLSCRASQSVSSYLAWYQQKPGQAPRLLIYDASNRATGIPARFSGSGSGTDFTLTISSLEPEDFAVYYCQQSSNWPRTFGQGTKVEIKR ), measured binding activity, % of wild type is 89.6%
